pIC50: −log10 of the molar value.
# collection of pIC50 values tested on UniProtKB O42275
# Sequence (O42275 whole entry): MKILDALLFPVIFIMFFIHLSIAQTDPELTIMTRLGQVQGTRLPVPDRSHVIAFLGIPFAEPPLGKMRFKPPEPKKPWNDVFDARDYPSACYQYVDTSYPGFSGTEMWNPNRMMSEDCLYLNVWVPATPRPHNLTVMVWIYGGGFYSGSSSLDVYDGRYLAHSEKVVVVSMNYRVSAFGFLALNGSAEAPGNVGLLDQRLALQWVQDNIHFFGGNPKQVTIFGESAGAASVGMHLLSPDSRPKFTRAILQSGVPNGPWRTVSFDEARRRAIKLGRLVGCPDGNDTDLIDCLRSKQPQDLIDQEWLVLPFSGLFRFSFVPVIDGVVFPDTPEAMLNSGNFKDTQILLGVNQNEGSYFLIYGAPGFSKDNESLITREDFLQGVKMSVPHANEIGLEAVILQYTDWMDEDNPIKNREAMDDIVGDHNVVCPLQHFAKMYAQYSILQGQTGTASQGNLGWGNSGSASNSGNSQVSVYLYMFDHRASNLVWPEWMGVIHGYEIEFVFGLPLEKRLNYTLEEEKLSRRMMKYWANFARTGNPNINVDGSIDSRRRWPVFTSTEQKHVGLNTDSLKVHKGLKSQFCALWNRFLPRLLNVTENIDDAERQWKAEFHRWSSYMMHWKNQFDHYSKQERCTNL

{"chem smiles": "CN(C)Cc1ccc(CSCCNc2nc(N)no2)o1", "result qualifier": "<", "pIC50": 4.30}
{"chem smiles": "Cc1nnc(NCCSCc2ccc(CN(C)C)o2)c([N+](=O)[O-])c1C", "result qualifier": "=", "pIC50": 5.57}
{"chem smiles": "Cc1nnc(NCCSCc2ccc(CN(C)C)o2)c([N+](=O)[O-])c1-c1ccccc1", "result qualifier": "=", "pIC50": 6.14}
{"chem smiles": "CN(C)Cc1ccc(CSCCNc2nnc(-c3ccccc3)c(-c3ccccc3)c2[N+](=O)[O-])o1", "result qualifier": "=", "pIC50": 6.72}
{"chem smiles": "Cc1cccc(Nc2ccccc2C(=O)NCCSCc2ccc(CN(C)C)o2)c1C", "result qualifier": "<", "pIC50": 4.30}
{"chem smiles": "CN(C)Cc1ccc(CSCCNc2nnccc2[N+](=O)[O-])o1", "result qualifier": "=", "pIC50": 6.33}
{"chem smiles": "CN(C)Cc1ccc(CSCCNc2nc(N)n[nH]2)o1", "result qualifier": "<", "pIC50": 4.30}
